The reported numbers originate from the supplement of paper PMC12042874.

- Method description: amyloid nucleation score (Sup35N fusion, yeast selection) (log enrichment); library NNK3; higher = more nucleation; inactive = no reads after selection;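 also: zero at mode of non-aggregating sequences after 7 days selection at 30°C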
Measurement label: amyloid nucleation score

> print(dat)
              substance         measurement.label    result
1  WNFIVFGFYLDGRILFISYL  amyloid nucleation score    -0.755
2  IVRWGSQSGVYRMPIEAWKW  amyloid nucleation score  inactive
3  ALNDLLAYSLSSKSFSYNWI  amyloid nucleation score  inactive
4               VRLRDLN  amyloid nucleation score  inactive
5  FFSVGIKLDVFVWFWGEGHL  amyloid nucleation score  inactive
6       AFLPMCGLDFKWRYV  amyloid nucleation score     -0.22
7  SRSIMSVLACHRMCERGPIW  amyloid nucleation score     0.827
8           SLLCNHFPGHI  amyloid nucleation score  inactive
9                DDYYFG  amyloid nucleation score  inactive

====

- Method description: amyloid nucleation score (Sup35N fusion, yeast selection) (log enrichment); library NNK3; higher = more nucleation; inactive = no reads after selection
Measurement label: amyloid nucleation score

> print(dat)
               substance    result
 1      IAFLAMHLFVASWFPR  inactive
 2       IYWDTRLGFCAYAKC  inactive
 3  IFVQAYLRGSEICALGDWRL  inactive
 4             FRYNDFMRD  inactive
 5      NLRFVTREWCKTYQLI  inactive
 6  KLRFKLRSLVNNNCGVVTRA  inactive
 7           GGSEGQSVPAC    -0.241
 8  LYDCRRGNLVTSCWNKCCLP  inactive
 9  YDLGIGNKHVRYLWGPARKK  inactive
10             YLINPVEVD  inactive
11   WHDYTQRGVWAHGTALVWG  inactive
12           TTHVILCLCNL      3.07
13  SLMSSRSCVTRTLLARQVYL  inactive
14  DCLSVEFVLNTRVAYWCTCA    -0.092
15  LFASWEDFLASSRYWRLEKR     0.356
16  MHFRTSDIPTTLELGLLGWP     0.096
17  IIHEFFSTQLILYDCIDRWF  inactive
18  DRVGRRLIGLRLAQLLGERF  inactive
19         WLQGCRSRWAVVL  inactive
20  SCVRVTSLGVNNTRFFDRSW  inactive
21  LCDFSLGGYSGNCYIFKMSV     0.739
22          VTGIIRRIYLLF  inactive
23  NRDVLQKPLIIAICQSFCSQ      2.32
24  TIMAFIIAIRSLDRCQSSGM  inactive
25  VCANLSWPFLSNTLLFVCLG  inactive
26     CISSGGMLLNSFGSLWA  inactive
27     IHILTKVWFSCVRRSLS  inactive
28  DGRSIEFIDGCDVYSICSRE  inactive
29                RTVDSH  inactive
30     KDSQALHRFSNTILRYL    -0.406
31     APFCVRGSWELRQVFRM     -0.13
32          SPFFYFFWPGFR  inactive
33  FVFCLEGTGGVFDFGFGIGI  inactive
34  LLLIWWNLALNLKLFFELKV  inactive
35  LIFGYPVGKFTMMGLTSMWS  inactive
36              GPIINVIS  inactive
